# Lookup of reported inhibition at 0.1 µM keyed by entry
biological target: AR protein (Homo sapiens, UniProt P10275, T878A); construct: degradation activity of the compounds disclosed in the present disclosure on AR protein in LNCaP cells; host or cells: LNCaP FGC; assay: Degradation of AR protein in LNCaP cells (Western blot); format: cell-based; details: LNCaP cells, compound 100 nM, 8 hours, Western blot grayscale, GAPDH internal reference; read-out: Degradation rates of the AR protein in LNCaP cells, 100 nM (%)
measuredAttribute: inhibition at 0.1 µM (%)

COC1(CN2CC3(CCc4cc5c(cc4O3)C(=O)N(C3CCC(=O)NC3=O)C5)C2)CCN(c2ccc(C(=O)N[C@H]3CC[C@H](Oc4ccc(C#N)c(Cl)c4)CC3)nn2)CC1 (stereo partly shown) ... 66
COc1cc(O[C@H]2CC[C@H](NC(=O)c3ccc(N4CCC(F)(CN5CC6(CCc7cc8c(cc7O6)CN(C6CCC(=O)NC6=O)C8=O)C5)CC4)nn3)CC2)ccc1C#N (stereo partly shown) ... 25
CCOC1(CN2CCC3(CC2)COc2c3ccc3c2C(=O)N(C2CCC(=O)NC2=O)C3=O)CCN(c2ccc(C(=O)N[C@H]3CC[C@H](Oc4ccc(C#N)c(OC)c4)CC3)nn2)CC1 (stereo partly shown) ... 58
N#Cc1ccc(O[C@H]2CC[C@H](NC(=O)c3ccc(N4CCC5(CCC(N6CCC7(CC6)COc6c(ccc8c6C(=O)N(C6CCC(=O)NC6=O)C8)C7)CC5)CC4)nn3)CC2)cc1Cl (stereo partly shown) ... 75
COc1cc(O[C@H]2CC[C@H](NC(=O)c3ccc(N4CC(CN5CCC6(CC5)COc5c6ccc6c5C(=O)N(C5CCC(=O)NC5=O)C6=O)C4)nn3)CC2)ccc1C#N (stereo partly shown) ... 37
N#Cc1ccc(O[C@H]2CC[C@H](NC(=O)c3ccc(N4CCC(CO)(CN5CCC6(CC5)COc5c6ccc6c5CN(C5CCC(=O)NC5=O)C6=O)CC4)nn3)CC2)cc1Cl (stereo partly shown) ... -41
CCC1(CN2CCC3(CC2)COc2c3ccc3c2CN(C2CCC(=O)NC2=O)C3=O)CCN(c2ccc(C(=O)N[C@H]3C(C)(C)[C@H](Oc4ccc(C#N)c(OC)c4)C3(C)C)cc2)CC1 (stereo partly shown) ... 57
CC1(CN2CC3(CCc4cc5c(cc4O3)C(=O)N(C3CCC(=O)NC3=O)C5=O)C2)CCN(c2ccc(C(=O)N[C@H]3CC[C@H](Oc4ccc(C#N)c(Cl)c4)CC3)nn2)CC1 (stereo partly shown) ... 50
N#Cc1ccc(O[C@H]2CC[C@H](NC(=O)c3ccc(N4CCC(F)(CN5CCC6(CC5)COc5cc7c(cc5C6)C(=O)N(C5CCC(=O)NC5=O)C7=O)CC4)nn3)CC2)cc1Cl (stereo partly shown) ... 60
N#Cc1ccc(O[C@H]2CC[C@H](NC(=O)c3ccc(N4CC(CN5CCC6(CC5)COc5cc7c(cc56)C(=O)N(C5CCC(=O)NC5=O)C7=O)C4)nn3)CC2)cc1Cl (stereo partly shown) ... 69

* * *

Listing of entries alongside the reported inhibition at 0.01 µM.
target: AR protein (Homo sapiens, UniProt P10275); construct: degradation activity of the compounds disclosed in the present disclosure on AR protein in VCaP cells; host or cells: VCaP; experiment: Degradation of AR protein in VCaP cells (Western blot); assay type: cell-based; settings: compound at 10 nM, 8 hours, read-out: Degradation rate of the AR protein in VCaP cells, 10 nM (%)
measuredAttribute: inhibition at 0.01 µM

N#Cc1ccc(O[C@H]2CC[C@H](NC(=O)c3ccc(N4CCC(O)(CN5CCC6(CC5)COc5c6ccc6c5C(=O)N(C5CCC(=O)NC5=O)C6=O)CC4)nn3)CC2)cc1Cl (some centres unmarked) [Compound 213] ... 32%
COc1cc(O[C@H]2C(C)(C)[C@H](NC(=O)c3ccc(N4CCC(C)(CN5CCC6(CCc7cc8c(cc7O6)CN(C6CCC(=O)NC6=O)C8=O)CC5)CC4)cc3)C2(C)C)ccc1C#N (some centres unmarked) [Compound 281] ... -11%
COc1cc(O[C@H]2C(C)(C)[C@H](NC(=O)c3ccc(N4CCC(C)(CN5CCC6(CCc7cc8c(cc7O6)C(=O)N(C6CCC(=O)NC6=O)C8=O)CC5)CC4)cc3)C2(C)C)ccc1C#N (some centres unmarked) [Compound 287] ... -31%
CC1(CN2CCC3(CC2)COc2c3ccc3c2CN(C2CCC(=O)NC2=O)C3=O)CCN(c2ccc(C(=O)N[C@H]3CC[C@H](Oc4ccc(C#N)c(Cl)c4)CC3)nc2)CC1 (some centres unmarked) [Compound 259] ... 33%
N#Cc1ccc(O[C@H]2CC[C@H](NC(=O)c3ccc(N4CCC(N5CCC6(CCc7ccc8c(c7O6)CN(C6CCC(=O)NC6=O)C8=O)CC5)CC4)nn3)CC2)cc1Cl (some centres unmarked) [Compound 171] ... 46%

* * *

target: AR protein (Homo sapiens); construct: degradation activity of the compounds disclosed in the present disclosure on AR protein in VCaP cells; host or cells: VCaP; experiment: Degradation of AR protein in VCaP cells (Western blot); assay type: cell-based; conditions: compound at 100 nM, 8 hours, read-out: Degradation rate of the AR protein in VCaP cells, 100 nM (%)
measuredAttribute: inhibition at 0.1 µM

N#Cc1ccc(O[C@H]2CC[C@H](NC(=O)c3ccc(N4CCC(CN5CCC6(CC5)Oc5cc7c(cc5CC6(F)F)C(=O)N(C5CCC(=O)NC5=O)C7=O)CC4)nn3)CC2)cc1Cl (stereo partly drawn) [Compound 18] ... 69%
COc1cc(O[C@H]2C(C)(C)[C@H](NC(=O)c3ccc(N4CCC(CN5CCC6(CCc7cc8c(cc7O6)C(=O)N(C6CCC(=O)NC6=O)C8=O)CC5)CC4)cc3)C2(C)C)ccc1C#N (stereo partly drawn) [Compound 276] ... 59%
COc1cc(O[C@H]2CC[C@H](NC(=O)c3cnc(N4CCC(CN5CCC6(CC5)COc5c6ccc6c5C(=O)N(C5CCC(=O)NC5=O)C6=O)(OC)CC4)nc3)CC2)ccc1C#N (stereo partly drawn) [Compound 220] ... 78%

* * *

Below, each entry is listed alongside its reported inhibition at 0.1 µM.
Molecular target: AR protein (Homo sapiens, UniProt P10275, T878A)
Construct: degradation activity of the compounds disclosed in the present disclosure on AR protein in LNCaP cells; host or cells: LNCaP FGC
Sequence (P10275 1-920 T878A): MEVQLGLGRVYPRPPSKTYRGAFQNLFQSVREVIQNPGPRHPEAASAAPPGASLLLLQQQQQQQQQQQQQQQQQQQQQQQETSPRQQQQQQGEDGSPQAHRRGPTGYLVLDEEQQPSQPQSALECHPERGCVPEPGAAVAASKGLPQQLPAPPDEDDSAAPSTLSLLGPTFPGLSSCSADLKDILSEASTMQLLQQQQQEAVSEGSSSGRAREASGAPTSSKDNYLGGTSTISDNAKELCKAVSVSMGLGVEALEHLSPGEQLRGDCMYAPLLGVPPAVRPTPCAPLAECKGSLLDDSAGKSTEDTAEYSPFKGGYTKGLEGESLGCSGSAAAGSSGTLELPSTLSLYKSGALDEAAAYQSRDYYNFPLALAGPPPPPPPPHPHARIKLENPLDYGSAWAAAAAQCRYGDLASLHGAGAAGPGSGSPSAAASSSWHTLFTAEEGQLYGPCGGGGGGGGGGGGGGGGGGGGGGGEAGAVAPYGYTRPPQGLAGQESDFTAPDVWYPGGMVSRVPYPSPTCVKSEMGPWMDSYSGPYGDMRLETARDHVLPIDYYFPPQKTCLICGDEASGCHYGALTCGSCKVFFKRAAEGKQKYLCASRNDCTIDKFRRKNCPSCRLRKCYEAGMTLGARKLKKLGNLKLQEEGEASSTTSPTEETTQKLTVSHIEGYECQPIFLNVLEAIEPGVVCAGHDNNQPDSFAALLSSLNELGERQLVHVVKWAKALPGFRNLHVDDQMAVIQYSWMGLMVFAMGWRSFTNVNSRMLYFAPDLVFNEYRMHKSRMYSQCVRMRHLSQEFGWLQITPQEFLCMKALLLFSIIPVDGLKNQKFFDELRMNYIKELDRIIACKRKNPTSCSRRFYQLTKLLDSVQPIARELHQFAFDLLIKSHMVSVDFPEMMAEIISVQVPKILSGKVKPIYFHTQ
Test: Degradation of AR protein in LNCaP cells (Western blot)
Type: cell-based
Settings: LNCaP cells, compound 100 nM, 8 hours, Western blot grayscale, GAPDH internal reference; read-out: Degradation rates of the AR protein in LNCaP cells, 100 nM (%)
measuredAttribute: inhibition at 0.1 µM (%)

COc1cc(O[C@H]2C(C)(C)[C@H](NC(=O)c3ccc(N4CCC(CN5CC6(CCc7ccc8c(c7O6)C(=O)N(C6CCC(=O)NC6=O)C8=O)C5)CC4)cc3)C2(C)C)ccc1C#N (some centres unmarked) ... 34
COc1cc(O[C@H]2C(C)(C)[C@H](NC(=O)c3ccc(N4CCC(C)(CN5CC6(CCc7cc8c(cc7O6)C(=O)N(C6CCC(=O)NC6=O)C8=O)C5)CC4)cc3)C2(C)C)ccc1C#N (some centres unmarked) ... 57
COc1cc(O[C@H]2C(C)(C)[C@H](NC(=O)c3ccc(N4CCC(F)(CN5CCC6(CCc7cc8c(cc7O6)C(=O)N(C6CCC(=O)NC6=O)C8=O)CC5)CC4)cc3)C2(C)C)ccc1C#N (some centres unmarked) ... 40
N#Cc1ccc(O[C@H]2CC[C@H](NC(=O)c3ccc(N4CC[C@H](CN5CCC6(CC5)COc5c6ccc6c5CN(C5CCC(=O)NC5=O)C6=O)[C@H](F)C4)nn3)CC2)cc1Cl (some centres unmarked) ... 34
COc1cc(O[C@H]2CC[C@H](NC(=O)c3cnc(N4CCC(CN5CC6(CCc7cc8c(cc7O6)C(=O)N(C6CCC(=O)NC6=O)C8=O)C5)(OC)CC4)nc3)CC2)ccc1C#N (some centres unmarked) ... 36
N#Cc1ccc(O[C@H]2CC[C@H](NC(=O)c3ccc(N4CCC5(CCc6cc7c(cc6O5)C(=O)N(C5CCC(=O)NC5=O)C7=O)CC4)nn3)CC2)cc1Cl (some centres unmarked) ... 60
N#Cc1ccc(O[C@H]2CC[C@H](NC(=O)c3ccc(N4CCC5(CCC(C(=O)N6CCC7(CC6)COc6c7ccc7c6CN(C6CCC(=O)NC6=O)C7=O)CC5)CC4)nn3)CC2)cc1Cl (some centres unmarked) ... 41
N#Cc1ccc(O[C@H]2CC[C@H](NC(=O)c3ccc(N4CCC5(CC(N6CCC7(CC6)COc6cc8c(cc6C7)C(=O)N(C6CCC(=O)NC6=O)C8=O)C5)C4)nn3)CC2)cc1Cl (some centres unmarked) ... 65
CCC1(CN2CCC3(CC2)COc2c3ccc3c2C(=O)N(C2CCC(=O)NC2=O)C3=O)CCN(c2ccc(C(=O)N[C@H]3CC[C@H](Oc4ccc(C#N)c(C(F)(F)F)c4)CC3)nn2)CC1 (some centres unmarked) ... -16
N#Cc1ccc(O[C@H]2CC[C@H](NC(=O)c3ccc(N4CC[C@@H](CN5CCC6(CC5)COc5cc7c(cc56)C(=O)N(C5CCC(=O)NC5=O)C7=O)C4)nn3)CC2)cc1Cl (some centres unmarked) ... 72
N#Cc1ccc(O[C@H]2CC[C@H](NC(=O)c3ccc(N4CCC(F)(CN5CC6(CCc7ccc8c(c7O6)C(=O)N(C6CCC(=O)NC6=O)C8=O)C5)CC4)nn3)CC2)cc1Cl (some centres unmarked) ... 4
N#Cc1ccc(O[C@H]2CC[C@H](NC(=O)c3ccc(N4CCC5(CC4)CC(N4CCC6(CC4)COc4c(ccc7c4C(=O)N(C4CCC(=O)NC4=O)C7)C6)C5)nn3)CC2)cc1Cl (some centres unmarked) ... 66
N#Cc1ccc(O[C@H]2CC[C@H](NC(=O)c3ccc(N4CCC(N5CC(N6CCC7(CC6)COc6c7ccc7c6CN(C6CCC(=O)NC6=O)C7=O)C5)CC4)nn3)CC2)cc1Cl (some centres unmarked) ... 39
N#Cc1ccc(O[C@H]2CC[C@H](NC(=O)c3ccc(N4CCC5(CCC(N6CCC7(CCc8cc9c(cc8O7)C(=O)N(C7CCC(=O)NC7=O)C9=O)CC6)CC5)C4)nn3)CC2)cc1Cl (some centres unmarked) ... 70
COc1cc(O[C@H]2CC[C@H](NC(=O)c3cnc(N4CCC(CN5CCC6(CC5)COc5c6ccc6c5C(=O)N(C5CCC(=O)NC5=O)C6=O)(OC)CC4)nc3)CC2)ccc1C#N (some centres unmarked) ... 63
CC1(C)[C@H](NC(=O)c2ccc(N3CCC(C#N)(CN4CCC5(CC4)COc4c5ccc5c4CN(C4CCC(=O)NC4=O)C5=O)CC3)nn2)C(C)(C)[C@H]1Oc1ccc(C#N)c(Cl)c1 (some centres unmarked) ... 7
C[C@H]1CN(c2ccc(C(=O)N[C@H]3CC[C@H](Oc4ccc(C#N)c(Cl)c4)CC3)nn2)C[C@@H]1CN1CCC2(CC1)COc1c2ccc2c1CN(C1CCC(=O)NC1=O)C2=O (some centres unmarked) ... 70
COc1cc(O[C@H]2CC[C@H](NC(=O)c3ccc(N4CCC(CN5CC6(CCc7cc8c(cc7O6)C(=O)N(C6CCC(=O)NC6=O)C8=O)C5)(OC)CC4)nn3)CC2)ccc1C#N (some centres unmarked) ... 28
N#Cc1ccc(O[C@H]2CC[C@H](NC(=O)c3ccc(N4CCC(O)(CN5CCC6(CC5)COc5c6ccc6c5C(=O)N(C5CCC(=O)NC5=O)C6=O)CC4)nn3)CC2)cc1C(F)(F)F (some centres unmarked) ... 68
N#Cc1ccc(O[C@H]2CC[C@H](NC(=O)c3ccc(N4CC(CN5CCC6(CC5)COc5cc7c(cc5C6)C(=O)N(C5CCC(=O)NC5=O)C7=O)C4)nn3)CC2)cc1Cl (some centres unmarked) ... 66
